PROTOCOL_TEXT: Protonation constants by potentiometric titration
Format: physicochemical
TEST_CONDITIONS: I=0.1 M KCl, 25° C.
Label scheme for log K3 (protonation constant): lower than 3 is label 0, 3 and above is label 1.

- CPD_SMILES: "O=C(O)c1cccc(CN2CCOCCOCCN(Cc3cccc(C(=O)O)n3)CCOc3ccccc3OCC2)n1"
  ASSIGNED_CATEGORY: "label 1"
- CPD_SMILES: "O=C(O)CN(CCN(CC(=O)O)CC(=O)O)CCN(CC(=O)O)CC(=O)O"
  ASSIGNED_CATEGORY: "label 1"
- CPD_SMILES: "O=C(O)CN(CCN(CC(=O)O)CC(=O)O)CC(=O)O"
  ASSIGNED_CATEGORY: "label 0"
- CPD_SMILES: "O=C(O)c1cccc(CN2CCOCCOCCN(Cc3cccc(C(=O)O)n3)CCOCCOCC2)n1"
  ASSIGNED_CATEGORY: "label 1"
- CPD_SMILES: "O=C(O)CN1CCN(CC(=O)O)CCN(CC(=O)O)CCN(CC(=O)O)CC1"
  ASSIGNED_CATEGORY: "label 1"

Attribution: patent US20240261444A1
